The measured values listed here are drawn from PubChem BioAssay AID1745844.

# Tested on: rodent lifetime carcinogenesis bioassay, tumor incidence TD50
# assayInfo: carcinogenic potency in animals, long-term in vivo studies, CPDB compilation (AID 1745844)
# conditionSet: mouse; strain Swiss albino; males; in drinking water; site: lung; lesion: adenocarcinoma; dosed 109 weeks; study length 109 weeks
outcomeMeasure: TD50 (mg/kg/day)
Record the value in mg/kg/day, omitting the unit from your answer.

The molecule listed as CCCCN(N)CCCC has a reported TD50 of 82.3

---

# Tested on: rodent lifetime carcinogenesis bioassay, tumor incidence TD50
# assayInfo: carcinogenic potency in animals, long-term in vivo studies, CPDB compilation (AID 1745844)
# conditionSet: dog; strain Beagle; females; in feed; site: any site (literature study); lesion: several types; types named in the paper; dosed 365 weeks; study length 365 weeks
outcomeMeasure: TD50 (mg/kg/day)
Numbers only here, please. The scale is mg/kg/day.

TD50 in this record for Cc1cc(C)c(S(=O)(=O)O)cc1N=Nc1cc(S(=O)(=O)O)c2ccccc2c1O : 670
